Ref: the supplement of paper PMC9112550

- System: Escherichia coli TOP10
- TEST_DETAILS: shrunken log2 fold change of peptide-encoding DNA abundance (4.5 h post-induction vs induction); higher = less antimicrobial activity (less host growth inhibition)
- EXPERIMENTAL_CONDITIONS: time post-induction: 4.5 h; library: site-saturation at positions 5, 18, 19, 20
Measured shrunken log2 fold change, listed per entry.

Worked cases, answers included:
>  <SEQ>
RRIRYRPPRLPRPRPRPVNLPRP

>  <shrunken log2 fold change>
-0.0688

$$$$
>  <SEQ>
RRIRRRPPRLPRPRPRPWPTPRP

>  <shrunken log2 fold change>
0.0393

$$$$
>  <SEQ>
RRIRGRPPRLPRPRPRPRMHPRP

>  <shrunken log2 fold change>
0.997

$$$$
>  <SEQ>
RRIRARPPRLPRPRPRPLCEPRP

>  <shrunken log2 fold change>
0.879

$$$$

Please give the measured shrunken log2 fold change for this sequence: RRIRFRPPRLPRPRPRPDNFPRP
-0.204

Please give the measured shrunken log2 fold change for this sequence: RRIRNRPPRLPRPRPRPGICPRP
0.122

Please give the measured shrunken log2 fold change for this sequence: RRIRCRPPRLPRPRPRPICYPRP
-0.358

Please give the measured shrunken log2 fold change for this sequence: RRIRYRPPRLPRPRPRPSMDPRP
-1.85

Please give the measured shrunken log2 fold change for this sequence: RRIRRRPPRLPRPRPRPNEAPRP
0.271

----------
- System: Escherichia coli TOP10
- TEST_DETAILS: shrunken log2 fold change of peptide-encoding DNA abundance (4.5 h post-induction vs induction); higher = less antimicrobial activity (less host growth inhibition)
- EXPERIMENTAL_CONDITIONS: time post-induction: 4.5 h; library: site-saturation at positions 5, 18, 19, 20
Measured shrunken log2 fold change, listed per entry.
Give the figure by itself; no unit, no explanation.

Worked cases, answers included:
>  <SEQ>
RRIRKRPPRLPRPRPRPRIEPRP

>  <MEASUREMENT_TARGET>
Escherichia coli TOP10

>  <PROPERTY_LABEL>
shrunken log2 fold change

>  <DATA_VALUE>
0.112

$$$$
>  <SEQ>
RRIRGRPPRLPRPRPRPLYIPRP

>  <MEASUREMENT_TARGET>
Escherichia coli TOP10;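 also: peptides expressed intracellularly from a pBAD plasmid library in pooled LB shake-flask culture, induced with 0.3% L-arabinose, DNA abundance read by NGS, three biological replicates, DESeq2 with apeglm shrinkage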

>  <PROPERTY_LABEL>
shrunken log2 fold change

>  <DATA_VALUE>
-0.321

$$$$

Please give the measured shrunken log2 fold change for this sequence: RRIRMRPPRLPRPRPRPREFPRP
0.0273

Please give the measured shrunken log2 fold change for this sequence: RRIRFRPPRLPRPRPRPNTCPRP
-0.483

Please give the measured shrunken log2 fold change for this sequence: RRIRDRPPRLPRPRPRPNFFPRP
0.144

Please give the measured shrunken log2 fold change for this sequence: RRIRTRPPRLPRPRPRPACAPRP
0.441

Please give the measured shrunken log2 fold change for this sequence: RRIRTRPPRLPRPRPRPPYQPRP
0.0802

Please give the measured shrunken log2 fold change for this sequence: RRIRVRPPRLPRPRPRPMAQPRP
0.149

Please give the measured shrunken log2 fold change for this sequence: RRIRYRPPRLPRPRPRPPGEPRP
0.0198

Please give the measured shrunken log2 fold change for this sequence: RRIRNRPPRLPRPRPRPAARPRP
0.161

Please give the measured shrunken log2 fold change for this sequence: RRIRNRPPRLPRPRPRPCGQPRP
0.0151

Please give the measured shrunken log2 fold change for this sequence: RRIRARPPRLPRPRPRPVRKPRP
0.763

Please give the measured shrunken log2 fold change for this sequence: RRIRTRPPRLPRPRPRPALDPRP
0.196

Please give the measured shrunken log2 fold change for this sequence: RRIRSRPPRLPRPRPRPREFPRP
0.322

Please give the measured shrunken log2 fold change for this sequence: RRIRVRPPRLPRPRPRPHQQPRP
-0.0863

Please give the measured shrunken log2 fold change for this sequence: RRIRARPPRLPRPRPRPLWRPRP
0.24
